target: purified VDAC1 (Homo sapiens, UniProt P21796); experiment: Glass-bound peptide array probed with purified VDAC1 and anti-VDAC1 antibodies; assay type: binding; parameters: key: +: low; ++: medium; +++: high; details: glass-bound peptide array incubated 4 h with purified VDAC1 (64 nM); antibody against VDAC1 N-terminus; chemiluminescence
Sequence (P21796 whole entry, species assumed): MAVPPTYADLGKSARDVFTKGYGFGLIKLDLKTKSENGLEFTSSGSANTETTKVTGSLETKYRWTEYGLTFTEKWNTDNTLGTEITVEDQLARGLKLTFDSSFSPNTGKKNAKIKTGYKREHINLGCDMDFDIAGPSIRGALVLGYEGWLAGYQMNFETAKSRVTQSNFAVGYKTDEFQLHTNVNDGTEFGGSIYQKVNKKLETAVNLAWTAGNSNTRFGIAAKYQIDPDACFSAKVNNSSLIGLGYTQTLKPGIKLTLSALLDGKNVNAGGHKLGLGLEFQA
Reported Property: Spot intensity, detected using anti-N-terminus VDAC1

Recorded results for 6 sequences are shown here.
IEDFKAKKKELEEIVQPIISKLYGS [2M14, array peptide from BiP1] : ++
DQCTGLQGFLVFHSFGGGTGSGFTS [2A2, array peptide from tubulin alpha 1b] : +
SNTTAIAEAWARLDHKFDLMYAKRA [2B6, array peptide from tubulin alpha 1b] : ++
GGVFTKLINRNTTIPTKKSQVFSTA [2O21, array peptide from HSP-70] : +
YKGGTSREGGQTAPASTRLFQVRAN [2I15, array peptide from gelsolin isoform b] : +
SILEIQKGVFEVKSTNGDTFLGGED [2N23, array peptide from HSP-70] : +++

Each sequence below has a reported value. Please supply its Spot intensity, detected using anti-N-terminus VDAC1.
1. FTEDELPYDDCVFGGQRLTL [2G5]
2. KIISNASCTTNCLAPLAKVIHDNFG [2C6, array peptide from GAPDH1]

## Output
["+", "+++"]
